MEASURED_ON: PI3Kβ (Homo sapiens)
Construct: made in house
Sequence (P42338 whole entry): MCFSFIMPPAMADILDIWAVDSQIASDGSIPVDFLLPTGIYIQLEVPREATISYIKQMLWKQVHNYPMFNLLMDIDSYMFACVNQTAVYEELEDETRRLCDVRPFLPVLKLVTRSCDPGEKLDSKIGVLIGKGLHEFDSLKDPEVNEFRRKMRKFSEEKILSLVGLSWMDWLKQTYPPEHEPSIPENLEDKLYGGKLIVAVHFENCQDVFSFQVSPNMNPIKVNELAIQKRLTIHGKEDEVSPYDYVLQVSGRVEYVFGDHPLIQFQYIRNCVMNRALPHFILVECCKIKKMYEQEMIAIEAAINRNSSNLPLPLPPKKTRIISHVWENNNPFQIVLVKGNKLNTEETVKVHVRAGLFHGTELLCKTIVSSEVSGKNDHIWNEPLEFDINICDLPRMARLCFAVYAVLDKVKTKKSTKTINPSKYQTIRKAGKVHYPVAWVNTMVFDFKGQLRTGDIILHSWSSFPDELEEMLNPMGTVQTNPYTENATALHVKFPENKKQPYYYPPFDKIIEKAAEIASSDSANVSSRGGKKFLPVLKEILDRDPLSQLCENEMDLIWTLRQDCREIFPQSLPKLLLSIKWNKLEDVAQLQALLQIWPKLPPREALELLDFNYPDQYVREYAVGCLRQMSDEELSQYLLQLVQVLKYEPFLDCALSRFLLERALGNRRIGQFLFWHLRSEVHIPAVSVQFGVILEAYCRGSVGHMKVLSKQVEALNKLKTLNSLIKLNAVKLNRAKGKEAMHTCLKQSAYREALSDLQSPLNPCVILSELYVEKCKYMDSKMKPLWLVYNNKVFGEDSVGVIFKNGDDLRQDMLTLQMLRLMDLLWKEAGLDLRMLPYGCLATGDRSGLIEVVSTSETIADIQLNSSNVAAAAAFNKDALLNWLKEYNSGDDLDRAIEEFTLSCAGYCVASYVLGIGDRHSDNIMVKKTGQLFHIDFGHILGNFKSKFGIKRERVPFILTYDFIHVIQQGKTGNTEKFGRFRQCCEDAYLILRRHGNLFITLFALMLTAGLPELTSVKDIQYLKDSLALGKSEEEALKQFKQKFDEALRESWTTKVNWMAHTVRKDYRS
Sequence (P27986 whole entry partner): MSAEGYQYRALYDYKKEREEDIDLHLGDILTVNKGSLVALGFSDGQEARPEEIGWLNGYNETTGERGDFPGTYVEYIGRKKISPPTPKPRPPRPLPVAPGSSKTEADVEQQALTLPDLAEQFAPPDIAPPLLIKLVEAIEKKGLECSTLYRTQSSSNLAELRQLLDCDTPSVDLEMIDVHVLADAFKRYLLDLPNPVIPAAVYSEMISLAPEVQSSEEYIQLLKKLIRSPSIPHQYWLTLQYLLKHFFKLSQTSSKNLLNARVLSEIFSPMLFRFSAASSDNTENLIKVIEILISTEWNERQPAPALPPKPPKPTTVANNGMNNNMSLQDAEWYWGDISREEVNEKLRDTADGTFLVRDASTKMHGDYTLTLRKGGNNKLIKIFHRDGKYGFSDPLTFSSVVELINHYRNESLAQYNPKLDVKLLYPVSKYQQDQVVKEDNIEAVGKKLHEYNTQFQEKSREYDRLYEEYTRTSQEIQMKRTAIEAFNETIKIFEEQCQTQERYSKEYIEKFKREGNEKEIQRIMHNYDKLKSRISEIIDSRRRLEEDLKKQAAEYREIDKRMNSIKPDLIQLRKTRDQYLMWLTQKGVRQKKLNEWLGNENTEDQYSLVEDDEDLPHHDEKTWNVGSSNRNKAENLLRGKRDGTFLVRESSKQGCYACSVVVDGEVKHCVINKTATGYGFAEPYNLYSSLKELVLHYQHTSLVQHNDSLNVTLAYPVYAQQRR
METHOD: HTRF in vitro profiling assay for PI3K inhibition, beta isoform
Type: biochemical
TEST_CONDITIONS: one experimental run or average of two or more runs; 200 pM enzyme, 100 uM ATP, 10 uM PIP2; read-out: P13KB PIC50 MEAN (converted)
ENDPOINT_LABEL: IC50

Solved cases below.
Cc1c(Cn2c(C)nc3c(Br)cc(N4CCOCC4)cc32)cccc1C(F)(F)F [Example 63]	1 nM
CC(=O)Nc1cc(N2CCOCC2)cc2c1nc(C)n2Cc1cccc2ccccc12 [Example 3]	200 nM
Cc1nc2c(O)cc(N3CCOCC3)cc2n1Cc1cccc2ccccc12 [Example 5]	1.58 nM

Please look at the following compound next.
Req: Can you share its IC50? I mean this compound: Cc1nc2c(F)cc(N3CCOCC3)cc2n1Cc1cccc2ccccc12 [Example 15]
Resp: 1 nM

These entries and their values trace back to patent US8541411B2.
